TARGET UNDER TEST: UBE2V1
TEST SUMMARY: reporter assay of Huesken 2005; also: test concentration or dose not given here
CONDITION INFO: siRNA
Oligonucleotides are written 5' to 3', each unit as a sugar letter and its base; * is a phosphorothioate linkage, no mark a phosphodiester; rarer units and linkages stand in square brackets, end groups in braces. Plain capitals give the bases only. d = 2'-deoxy (DNA); r = 2'-OH (RNA)
PROPERTY NAME: normalised inhibition (eCFP-eYFP dual reporter) (%)

In [3]: df
Out[3]:
                                  substance  endpoint_unit  result_value
0  sense rUrGrGrArArGrArArCrUrCrGrArArGrArArGrGdTdT / antisense rCrCrUrUrCrUrUrCrGrArGrUrUrCrUrUrCrCrAdAdC              %          59.9
1  sense rGrArGrCrCrArUrArUrCrArGrUrGrCrUrArGrCdTdT / antisense rGrCrUrArGrCrArCrUrGrArUrArUrGrGrCrUrCdTdT              %          90.9
2  sense rArGrArGrCrCrArUrArUrCrArGrUrGrCrUrArGdTdT / antisense rCrUrArGrCrArCrUrGrArUrArUrGrGrCrUrCrUdTdG              %          90.3

----------
TARGET UNDER TEST: UBE2T
TEST SUMMARY: reporter assay of Huesken 2005
CONDITION INFO: siRNA
Oligonucleotides are written 5' to 3', each unit as a sugar letter and its base; * is a phosphorothioate linkage, no mark a phosphodiester; rarer units and linkages stand in square brackets, end groups in braces. Plain capitals give the bases only. d = 2'-deoxy (DNA); r = 2'-OH (RNA)
PROPERTY NAME: normalised inhibition (eCFP-eYFP dual reporter) (%)

In [3]: df
Out[3]:
                                  substance  result_value
0  sense rUrCrArArCrArUrCrGrCrArArCrUrGrUrGrUrUdTdT / antisense rArArCrArCrArGrUrUrGrCrGrArUrGrUrUrGrAdGdG           103
1  sense rGrCrUrArGrUrArGrGrCrArUrArGrArArArArGdTdT / antisense rCrUrUrUrUrCrUrArUrGrCrCrUrArCrUrArGrCdTdG           106
2  sense rGrArUrUrUrGrUrCrUrGrGrArUrGrUrUrCrUrCdTdT / antisense rGrArGrArArCrArUrCrCrArGrArCrArArArUrCdCdT            75

----------
TARGET UNDER TEST: UBE2E3
TEST SUMMARY: reporter assay of Huesken 2005
CONDITION INFO: siRNA
Oligonucleotides are written 5' to 3', each unit as a sugar letter and its base; * is a phosphorothioate linkage, no mark a phosphodiester; rarer units and linkages stand in square brackets, end groups in braces. Plain capitals give the bases only. d = 2'-deoxy (DNA); r = 2'-OH (RNA)
Listed here: items and their measured normalised inhibition (eCFP-eYFP dual reporter).
PROPERTY NAME: normalised inhibition (eCFP-eYFP dual reporter) (%)

>>> df
                                   substance  target_under_test  result_value
 0  sense rArArArGrGrUrUrArCrUrUrUrCrCrGrCrArCrCdTdT / antisense rGrGrUrGrCrGrGrArArArGrUrArArCrCrUrUrUdGdG             UBE2E3          50.7
 1  sense rCrUrGrUrArUrArUrGrArArGrGrUrGrGrUrGrUdTdT / antisense rArCrArCrCrArCrCrUrUrCrArUrArUrArCrArGdAdA             UBE2E3          36.8
 2  sense rCrUrCrCrUrCrCrUrArArUrUrGrCrArGrUrGrCdTdT / antisense rGrCrArCrUrGrCrArArUrUrArGrGrArGrGrArGdGdA             UBE2E3          34.3
 3  sense rCrArCrCrArArArGrGrUrUrArCrUrUrUrCrCrGdTdT / antisense rCrGrGrArArArGrUrArArCrCrUrUrUrGrGrUrGdGdC             UBE2E3          58.8
 4  sense rArCrArGrGrArUrArGrCrCrArGrArCrArGrUrGdTdT / antisense rCrArCrUrGrUrCrUrGrGrCrUrArUrCrCrUrGrUdCdG             UBE2E3          55.2
 5  sense rUrGrCrUrArArGrUrUrArUrCrCrArCrUrArGrUdTdT / antisense rArCrUrArGrUrGrGrArUrArArCrUrUrArGrCrAdGdT             UBE2E3          82.8
 6  sense rCrCrUrCrCrUrCrCrUrArArUrUrGrCrArGrUrGdTdT / antisense rCrArCrUrGrCrArArUrUrArGrGrArGrGrArGrGdAdT             UBE2E3          62.6
 7  sense rCrUrUrGrGrUrCrCrArCrCrGrGrGrUrUrCrUrGdTdT / antisense rCrArGrArArCrCrCrGrGrUrGrGrArCrCrArArGdTdA             UBE2E3          68.4
 8  sense rGrArArGrGrArGrCrUrArGrCrUrGrArArArUrAdTdT / antisense rUrArUrUrUrCrArGrCrUrArGrCrUrCrCrUrUrCdTdG             UBE2E3          88.5
 9  sense rGrArCrCrArGrCrGrArGrArCrCrCrArGrCrCrGdTdT / antisense rCrGrGrCrUrGrGrGrUrCrUrCrGrCrUrGrGrUrCdCdG             UBE2E3          54.7
10  sense rArArUrUrCrArGrArArGrGrArGrCrUrArGrCrUdTdT / antisense rArGrCrUrArGrCrUrCrCrUrUrCrUrGrArArUrUdCdT             UBE2E3          71.2
11  sense rCrCrUrUrGrArUrCrCrUrCrCrUrCrCrUrArArUdTdT / antisense rArUrUrArGrGrArGrGrArGrGrArUrCrArArGrGdGdT             UBE2E3          81.6

----------
Recorded normalised inhibition (eCFP-eYFP dual reporter) by entry
TARGET UNDER TEST: Cacnb1 (rat)
TEST SUMMARY: reporter assay of Huesken 2005
CONDITION INFO: siRNA
Oligonucleotides are given in HELM: sugar(base)linkage, 5' to 3'; d 2'-deoxyribose, r ribose, m 2'-O-methylribose, p phosphate. ss, as = sense and antisense strand
PROPERTY NAME: normalised inhibition (eCFP-eYFP dual reporter) (%)

SUBSTANCE	TARGET UNDER TEST	ENDPOINT UNIT	RESULT VALUE
RNA1{r(C)p.r(U)p.r(G)p.r(A)p.r(G)p.r(G)p.r(U)p.r(A)p.r(C)p.r(A)p.r(G)p.r(A)p.r(G)p.r(U)p.r(G)p.r(A)p.r(A)p.r(A)p.r(U)p.d(T)p.d(T)}|RNA2{r(A)p.r(U)p.r(U)p.r(U)p.r(C)p.r(A)p.r(C)p.r(U)p.r(C)p.r(U)p.r(G)p.r(U)p.r(A)p.r(C)p.r(C)p.r(U)p.r(C)p.r(A)p.r(G)p.d(C)p.d(C)}$$$RNA1{StrandType:ss}|RNA2{StrandType:as}$	Cacnb1 (rat)	%	59.1
RNA1{r(G)p.r(G)p.r(G)p.r(G)p.r(A)p.r(G)p.r(C)p.r(U)p.r(G)p.r(G)p.r(G)p.r(C)p.r(C)p.r(A)p.r(G)p.r(C)p.r(C)p.r(C)p.r(C)p.d(T)p.d(T)}|RNA2{r(G)p.r(G)p.r(G)p.r(G)p.r(C)p.r(U)p.r(G)p.r(G)p.r(C)p.r(C)p.r(C)p.r(A)p.r(G)p.r(C)p.r(U)p.r(C)p.r(C)p.r(C)p.r(C)p.d(G)p.d(G)}$$$RNA1{StrandType:ss}|RNA2{StrandType:as}$	Cacnb1 (rat)	%	19.2
RNA1{r(A)p.r(A)p.r(C)p.r(C)p.r(A)p.r(A)p.r(U)p.r(U)p.r(G)p.r(G)p.r(A)p.r(A)p.r(G)p.r(A)p.r(U)p.r(G)p.r(C)p.r(C)p.r(U)p.d(T)p.d(T)}|RNA2{r(A)p.r(G)p.r(G)p.r(C)p.r(A)p.r(U)p.r(C)p.r(U)p.r(U)p.r(C)p.r(C)p.r(A)p.r(A)p.r(U)p.r(U)p.r(G)p.r(G)p.r(U)p.r(U)p.d(C)p.d(T)}$$$RNA1{StrandType:ss}|RNA2{StrandType:as}$	Cacnb1 (rat)	%	50
